# inhibition of SARS-CoV-2 cytopathic effect per entry
System: Vero E6 infected with SARS-CoV-2
Experiment: inhibition of SARS-CoV-2 cytopathic effect; higher = more antiviral protection, active = above 15
Settings: 833.33 nM; 48 h
Your answer should be a plain number; it is taken to be in %.

Past entries and their recorded results:
MOL | TARGET UNDER TEST | OBSERVED VALUE
COC(=O)Nc1nc2cc(C(=O)c3cccs3)ccc2[nH]1 | Vero E6 infected with SARS-CoV-2 | 1.99
CC(=O)O[C@@H]1CC[C@@]2(C)[C@@H](CC[C@]3(C)[C@@H]2C(=O)C=C2[C@@H]4[C@@H](C)[C@H](C)CC[C@]4(C)CC[C@]23C)[C@@]1(C)C(=O)O | Vero E6 infected with SARS-CoV-2 | -0.71
C=CC[C@]1(O)CC[C@H]2[C@@H]3CCC4=CCCC[C@@H]4[C@H]3CC[C@@]21C | Vero E6 infected with SARS-CoV-2 | 1.07
CC[C@@H]1C(=O)OC[C@@H]1Cc1cncn1C | Vero E6 infected with SARS-CoV-2 | 3.49
Nc1nc(O)c2[nH]nnc2n1 | Vero E6 infected with SARS-CoV-2 | 1.36

Consider the molecule Nc1ncnc2c1ncn2[C@@H]1O[C@H](CO)[C@@H](O)[C@H]1O . State its measured inhibition of SARS-CoV-2 cytopathic effect.
-1.84

Give inhibition of SARS-CoV-2 cytopathic effect for C=CCN1C[C@H](C)N([C@H](c2ccc(C(=O)N(CC)CC)cc2)c2cccc(OC)c2)C[C@H]1C
-0.17

Complete the entry with inhibition of SARS-CoV-2 cytopathic effect for COc1ncc(-c2ccc3nccc(-c4ccnnc4)c3c2)cc1NS(=O)(=O)c1ccc(F)cc1F
-8.47

* * *

The following molecules are shown together with reported inhibition of SARS-CoV-2 cytopathic effect values.
Test system: Vero E6 infected with SARS-CoV-2
Assay: inhibition of SARS-CoV-2 cytopathic effect; higher = more antiviral protection, active = above 15
Details: 10000 nM; 48 h
Field: numeric (%). Do not append units.

MOLECULE | OBSERVED VALUE
CCCCNc1ncc2c(-c3ccc(CN4CCN(C)CC4)cc3)cn([C@H]3CC[C@H](O)CC3)c2n1 | 7.04
CCc1nc2ccc(Cl)cn2c1C(=O)NCc1ccc(N2CCC(c3ccc(OC(F)(F)F)cc3)CC2)cc1 | -1.65
Fc1ccccc1CNCc1ccc(-c2ccnc3[nH]ccc23)cc1 | -7.9
Clc1ccccc1C(c1ccccc1)(c1ccccc1)n1cccn1 | 0.33
c1ccc2c(c1)OC[C@H](CNCCCOc1ccc3c(c1)OCO3)O2 [osemozotan] | 0.79

Answer with the recorded inhibition of SARS-CoV-2 cytopathic effect of C[C@H](Cc1ccc2c(c1)OC(C(=O)O)(C(=O)O)O2)NC[C@H](O)c1cccc(Cl)c1 only.
2.18

Given Cc1cc(C)n(-c2cccc([C@H](CC(=O)O)CN3CC[C@@H](CCc4ccc5c(n4)NCCC5)C3)c2)n1 [integrin-antagonist-1] , respond with its inhibition of SARS-CoV-2 cytopathic effect.
-0.92

* * *

Test system: Vero E6 infected with SARS-CoV-2
Assay: inhibition of SARS-CoV-2 cytopathic effect; higher = more antiviral protection, active = above 15
Conditions: 8.33 nM; 48 h
PROPERTY NAME: inhibition of SARS-CoV-2 cytopathic effect (%)
Respond numerically; units are % and should not be typed.

MOLECULE | OBSERVED VALUE
CCOc1ccc(C[C@H]2NC(=O)CCSSC[C@@H](C(=O)N3CCC[C@H]3C(=O)N[C@@H](CCCN)C(=O)NCC(N)=O)NC(=O)[C@H](CC(N)=O)NC(=O)[C@H]([C@@H](C)O)NC(=O)[C@H]([C@@H](C)CC)NC2=O)cc1 [atosiban] | -1.47
CC(C)(COP(=O)(O)OP(=O)(O)OC[C@H]1O[C@@H](n2cnc3c(N)ncnc32)[C@H](O)[C@@H]1OP(=O)(O)O)[C@@H](O)C(=O)NCCC(=O)NCCS [coenzyme-A] | 0.97

Next molecule, inhibition of SARS-CoV-2 cytopathic effect to be filled in.
State inhibition of SARS-CoV-2 cytopathic effect (Vero E6 infected with SARS-CoV-2) of C/C(=C\C(N)C(=O)O)CP(=O)(O)O (stereo not drawn) .
-2.58
